TEST_PROTOCOL: gradient 5% acetonitrile 3 min, to 50% in 2 min, to 85% in 15 min, held 3 min, 100 µL/min
CONDITION_DESCRIPTION: column: Zorbax Extend-C18 2.1 x 50 mm; eluents: water / acetonitrile, 0.1% formic acid
Listing of entries alongside the reported RP-LC retention time.

[
  {
    "COMPOUND": "Cc1cccc(NC(=O)Nc2ccc(-c3cccc4[nH]nc(N)c34)cc2)c1",
    "RP-LC retention time (s)": 789
  },
  {
    "COMPOUND": "COc1cc(-c2nc(C3CC(=O)N(c4ccc(C)cc4)C3)no2)cc(OC)c1OC (stereo not given)",
    "RP-LC retention time (s)": 834
  },
  {
    "COMPOUND": "CCN1CCCCc2cc(C(=O)NC3CCS(=O)(=O)C3)sc21 (stereo not given)",
    "RP-LC retention time (s)": 790
  },
  {
    "COMPOUND": "Cc1cc(-c2cc(S(=O)(=O)N(CCN(C)C)Cc3cccs3)c(C)s2)n[nH]1",
    "RP-LC retention time (s)": 658
  },
  {
    "COMPOUND": "COCc1nc(NCc2cccnc2)ncc1C(=O)O",
    "RP-LC retention time (s)": 809
  },
  {
    "COMPOUND": "Cc1ccc(C)c(Cn2nnc(C(=O)O)c2-c2ccncc2)c1",
    "RP-LC retention time (s)": 650
  },
  {
    "COMPOUND": "O=C(Cc1ccccc1)N1CC(Oc2ccc(-c3nc(-c4ccccc4)no3)cc2)C1",
    "RP-LC retention time (s)": 1150
  },
  {
    "COMPOUND": "O=C(NCc1noc(C2CCCCC2)n1)c1coc(C2CC2)n1",
    "RP-LC retention time (s)": 889
  },
  {
    "COMPOUND": "CCOc1ccccc1NC(=O)Cn1c(=O)n(CC(N)=O)c(=O)c2oc3ccccc3c21",
    "RP-LC retention time (s)": 704
  },
  {
    "COMPOUND": "CC(C)(C)OC(=O)Cn1nc2ccc(S(=O)(=O)N3CCSCC3)cn2c1=O",
    "RP-LC retention time (s)": 888
  }
]

====

Listing of entries alongside the reported RP-LC retention time.
TEST_PROTOCOL: gradient 5% acetonitrile 3 min, to 50% in 2 min, to 85% in 15 min, held 3 min, 100 µL/min
CONDITION_DESCRIPTION: column: Zorbax Extend-C18 2.1 x 50 mm; eluents: water / acetonitrile, 0.1% formic acid

[
  {
    "MOLECULE": "CCN1CCn2cc(S(=O)(=O)N3CCN(c4cccc(Cl)c4)CC3)cc2C1=O",
    "RP-LC retention time": "872 s"
  },
  {
    "MOLECULE": "COCCCNC(=O)Cn1c(=O)n(-c2ccccc2)c2ncccc21",
    "RP-LC retention time": "650 s"
  },
  {
    "MOLECULE": "COc1ccc2c(c1)C1(CCN(S(=O)(=O)c3ccccc3)C1)C(=O)N2 (stereo not given)",
    "RP-LC retention time": "771 s"
  },
  {
    "MOLECULE": "CCN1CCCC1CNC(=O)CN1C(=O)C2CCCCN2c2ccc(C(=O)N(C)C)cc21 (stereo not given)",
    "RP-LC retention time": "596 s"
  },
  {
    "MOLECULE": "Cc1ccc(-n2ccc(=O)c(-c3nc(-c4cccc(Br)c4)no3)n2)cc1",
    "RP-LC retention time": "1030 s"
  }
]

====

TEST_PROTOCOL: gradient 5% acetonitrile 3 min, to 50% in 2 min, to 85% in 15 min, held 3 min, 100 µL/min
CONDITION_DESCRIPTION: column: Zorbax Extend-C18 2.1 x 50 mm; eluents: water / acetonitrile, 0.1% formic acid
In this scheme, each record receives a class according to its RP-LC retention time; the ranges are band 1 (below 800 s), band 2 (800 s to below 900 s), band 3 (900 s or more)

[
  {
    "COMPOUND": "O=c1c2ccccc2c(-c2nc(-c3ccncc3)no2)cn1-c1cccc(F)c1",
    "CLASS_ASSIGNMENT": "band 3"
  },
  {
    "COMPOUND": "CCC1Oc2ccc(S(=O)(=O)N3CCC(C(=O)N(C)c4cccc(C)c4)CC3)cc2NC1=O (centres undefined)",
    "CLASS_ASSIGNMENT": "band 2"
  },
  {
    "COMPOUND": "CC1CCN(CCNS(=O)(=O)c2ccccc2-c2nc(-c3ccc(F)cc3)no2)CC1",
    "CLASS_ASSIGNMENT": "band 1"
  },
  {
    "COMPOUND": "O=C(CNC(=O)Cc1ccc(Cl)cc1)NCc1[nH]nc2ccccc12",
    "CLASS_ASSIGNMENT": "band 1"
  },
  {
    "COMPOUND": "COC(=O)c1cc(OCC(=O)Nc2ccccc2)c2cc(OC)c(OC)cc2n1",
    "CLASS_ASSIGNMENT": "band 1"
  },
  {
    "COMPOUND": "CCn1c(C(=O)NC2CCCCCC2)cc2sc(Cl)cc21",
    "CLASS_ASSIGNMENT": "band 3"
  },
  {
    "COMPOUND": "O=C(Cn1nc(N2CCOCC2)c2ccccc2c1=O)Nc1ccc(F)cc1",
    "CLASS_ASSIGNMENT": "band 2"
  },
  {
    "COMPOUND": "O=C(Nc1ccc2nc3n(c(=O)c2c1)CCC3)Nc1ccccc1Br",
    "CLASS_ASSIGNMENT": "band 1"
  },
  {
    "COMPOUND": "COc1ccc(-c2ncc3c(n2)CCN(C(=O)Cc2ccccc2Cl)C3)cc1",
    "CLASS_ASSIGNMENT": "band 3"
  },
  {
    "COMPOUND": "CCCCOc1ccc(-c2cc3c(N4CCN(C)CC4)nccn3n2)cc1",
    "CLASS_ASSIGNMENT": "band 1"
  },
  {
    "COMPOUND": "COc1ccc(-n2c(CN3CCN(C(=O)Nc4cc(F)ccc4F)CC3)nc3cccnc32)cc1",
    "CLASS_ASSIGNMENT": "band 1"
  },
  {
    "COMPOUND": "CCCNC(=O)N1CCCN(C2=NS(=O)(=O)C(c3ccc(F)cc3)=C2C)CC1",
    "CLASS_ASSIGNMENT": "band 2"
  },
  {
    "COMPOUND": "CN(C)S(=O)(=O)N1CCC(F)(c2nc(-c3ccccc3)no2)CC1",
    "CLASS_ASSIGNMENT": "band 3"
  },
  {
    "COMPOUND": "CC(C)(C)c1ccc2c(c1)N(S(=O)(=O)c1ccccc1)CC(C(=O)NC1CC1)O2 (centres undefined)",
    "CLASS_ASSIGNMENT": "band 3"
  },
  {
    "COMPOUND": "CC(C)c1noc(C2(NC(=O)c3ccc(F)cc3)CCCCC2)n1",
    "CLASS_ASSIGNMENT": "band 3"
  },
  {
    "COMPOUND": "Cc1ccc(CNC(=O)C2CCN(S(=O)(=O)c3ccc4c(c3)NC(=O)CO4)CC2)o1",
    "CLASS_ASSIGNMENT": "band 1"
  },
  {
    "COMPOUND": "COc1ccc(-c2cc(=O)c3cc(OC(=O)c4ccncc4)ccc3o2)cc1",
    "CLASS_ASSIGNMENT": "band 2"
  }
]

====

TEST_PROTOCOL: gradient 5% acetonitrile 3 min, to 50% in 2 min, to 85% in 15 min, held 3 min, 100 µL/min
CONDITION_DESCRIPTION: column: Zorbax Extend-C18 2.1 x 50 mm; eluents: water / acetonitrile, 0.1% formic acid
Classify by measured RP-LC retention time: 1 if it is equal to or exceeds 700 s, 0 if it is smaller.

[
  {
    "COMPOUND": "Cc1cc(C)c(C(=O)N2CCCC(C(=O)NCc3ccccc3Cl)C2)[nH]1 (stereo not given)",
    "CLASS_ASSIGNMENT": 1
  },
  {
    "COMPOUND": "COc1ccccc1NC(=O)Cn1nc2c(Oc3ccccc3Cl)nccn2c1=O",
    "CLASS_ASSIGNMENT": 1
  },
  {
    "COMPOUND": "OC(COCc1ccc(Cl)cc1)CN1CCN(c2ccccn2)CC1 (stereo not given)",
    "CLASS_ASSIGNMENT": 0
  }
]

====

TEST_PROTOCOL: gradient 5% acetonitrile 3 min, to 50% in 2 min, to 85% in 15 min, held 3 min, 100 µL/min
CONDITION_DESCRIPTION: column: Zorbax Extend-C18 2.1 x 50 mm; eluents: water / acetonitrile, 0.1% formic acid
Listing of entries alongside the reported RP-LC retention time.
REPORTED_PROPERTY: RP-LC retention time (s)

[
  {
    "COMPOUND": "CCc1ccc(NC(=O)N2CCC(n3cnc4cc(Cl)ccc4c3=O)CC2)cc1",
    "REPORTED_PROPERTY": "RP-LC retention time",
    "RECORDED_MEASUREMENT": 877
  },
  {
    "COMPOUND": "CCOc1ccc(CC(=O)N2CCC3(CC2)C(=O)N(C)c2ccccc23)cc1OCC",
    "REPORTED_PROPERTY": "RP-LC retention time",
    "RECORDED_MEASUREMENT": 830
  },
  {
    "COMPOUND": "CC1CCN(C(=O)c2ccc3c(c2)N(CC(=O)NC(C)C)C(=O)CO3)CC1",
    "REPORTED_PROPERTY": "RP-LC retention time",
    "RECORDED_MEASUREMENT": 684
  },
  {
    "COMPOUND": "Cc1nc(CC(=O)Nc2ccc(Cl)cc2F)cs1",
    "REPORTED_PROPERTY": "RP-LC retention time",
    "RECORDED_MEASUREMENT": 838
  },
  {
    "COMPOUND": "O=C(NCCc1ccco1)C1CCCN(c2nc3ccccc3n(Cc3ccccc3)c2=O)C1 (centres undefined)",
    "REPORTED_PROPERTY": "RP-LC retention time",
    "RECORDED_MEASUREMENT": 1090
  },
  {
    "COMPOUND": "CC(C(=O)Nc1ccc2c(c1)OCCO2)n1cnc2nc3c(cc2c1=O)CCCC3 (centres undefined)",
    "REPORTED_PROPERTY": "RP-LC retention time",
    "RECORDED_MEASUREMENT": 712
  },
  {
    "COMPOUND": "COc1ccc(CCc2nc3nccc(-c4ccc(F)cc4OC)n3n2)cc1",
    "REPORTED_PROPERTY": "RP-LC retention time",
    "RECORDED_MEASUREMENT": 916
  },
  {
    "COMPOUND": "O=C(C1CCCN(c2ncccc2-c2noc(C3CCC3)n2)C1)N1CCCCC1 (centres undefined)",
    "REPORTED_PROPERTY": "RP-LC retention time",
    "RECORDED_MEASUREMENT": 928
  },
  {
    "COMPOUND": "COc1cccc(-c2c(C(=O)O)nnn2-c2ccc(OC)c(OC)c2)c1",
    "REPORTED_PROPERTY": "RP-LC retention time",
    "RECORDED_MEASUREMENT": 715
  }
]
